Recorded EC50 by entry
- assayed.system: Melanocyte-stimulating hormone receptor (Homo sapiens, UniProt Q01726)
- Sequence (Q01726 whole entry): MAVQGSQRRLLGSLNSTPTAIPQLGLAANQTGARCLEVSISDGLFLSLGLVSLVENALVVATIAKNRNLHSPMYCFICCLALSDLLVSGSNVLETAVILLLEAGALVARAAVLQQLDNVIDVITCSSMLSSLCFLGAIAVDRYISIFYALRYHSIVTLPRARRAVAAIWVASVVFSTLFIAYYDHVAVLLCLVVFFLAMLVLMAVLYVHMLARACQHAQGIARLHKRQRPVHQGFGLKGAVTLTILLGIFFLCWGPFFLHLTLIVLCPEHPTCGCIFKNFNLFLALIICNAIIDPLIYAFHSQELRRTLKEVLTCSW
- test.protocol: Agonist activity at human MC1R expressed in CHO cells after 4 hrs by luciferase reporter gene assay

Read off the recorded EC50 for COc1ccc(N(C(=O)CN2C=CN(C3CCCCC3)C(=O)C(Cc3n[nH]c4ccccc34)C2=O)C(C)C)cc1 (racemic)
> 31.6 µM

Look up and state reported EC50 for COc1ccc(N(C(=O)CN2C=CN(C3CCCCC3)C(=O)C(Cc3ccccc3)C2=O)C(C)C)cc1 (racemic)
> 31.6 µM

Complete the entry with EC50 for COc1ccc(N(C(=O)CN2C=CN(c3ccccc3)C(=O)C(Cc3nn(C)c4ccccc34)C2=O)C(C)C)cc1 (racemic)
> 31.6 µM

Recall and state the measured EC50 for CC(C)N(C(=O)CN1C=CN(c2ccccc2)C(=O)[C@@H](Cc2n[nH]c3ccccc23)C1=O)c1ccccc1 .
> 31.6 µM
